Tested on: 786-0 renal
Method Notes: NCI tumour cell line growth inhibition, 48 h
The compounds listed here are annotated with their log10 TGI.
// do not treat as linear: log10 of TGI, unit µM

Smiles Data: C=CC(=O)N1CCN([C@@H](CC2CC2)c2ccc([C@H](C)Nc3ncc4c(n3)N(CC)C(=O)OC4)cc2)CC1
Outcome Measure: log10 TGI
Assay Result: 1.41

Report log10 TGI for `Nc1nc(N)c2cc(-c3cc4ccccc4[nH]3)ccc2n1` please.
1.70

What value of log10 TGI has been recorded for this entry: `CN1CCN(CCCOC(=O)c2c3c(n4ccccc24)C(=O)c2ncccc2C3=O)CC1`
-1.39

I am curious: what log10 TGI value has been reported for `CC1=C[C@H](C[C@]2(C)c3c(c4c(C)cccc4oc3=O)O[C@@H]2C)OC1=O` ?
1.70

Item under review: `COCCn1c(Nc2ccc(C(=O)NO)cc2)nc2ccccc21` . Reported log10 TGI?
1.37
